Ref: patent US20160120863A1

Molecular target: human GLUT2 (Homo sapiens, UniProt P11168)
Construct: expressed in transfected cells
Sequence (P11168 whole entry): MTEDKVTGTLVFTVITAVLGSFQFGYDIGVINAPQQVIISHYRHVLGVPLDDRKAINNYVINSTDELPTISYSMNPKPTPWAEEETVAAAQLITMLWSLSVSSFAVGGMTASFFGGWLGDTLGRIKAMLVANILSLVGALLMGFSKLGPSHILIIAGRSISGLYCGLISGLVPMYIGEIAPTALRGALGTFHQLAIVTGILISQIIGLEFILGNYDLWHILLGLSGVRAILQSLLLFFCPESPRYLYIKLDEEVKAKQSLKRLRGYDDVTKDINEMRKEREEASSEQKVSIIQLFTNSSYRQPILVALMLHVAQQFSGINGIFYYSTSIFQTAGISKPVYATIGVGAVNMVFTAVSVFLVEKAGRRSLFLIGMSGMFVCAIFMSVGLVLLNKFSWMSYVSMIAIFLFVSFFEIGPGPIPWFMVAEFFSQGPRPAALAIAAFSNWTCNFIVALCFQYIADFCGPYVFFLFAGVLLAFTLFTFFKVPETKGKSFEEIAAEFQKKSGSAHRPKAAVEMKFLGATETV
Assay: [3H]-deoxy-D-glucose uptake assay, GLUT2
Format: cell-based
Details: [3H]-deoxy-D-glucose uptake in HEK293 cells stably expressing human GLUT2
QUANTITY MEASURED: GLUT2 pIC50

- CC(=O)N1CCN(Cc2c(-c3ccc(Cl)cc3Cl)nc3cnc(C(C)C)cn23)CC1: +++ (pIC50 ≧ 6.00)
- CS(=O)(=O)c1ccc2nc(-c3ccc(Cl)cc3)c(CN3CCOCC3)n2c1: +− (pIC50 < 4.00)
- O=C(Cc1c(-c2ccc(Cl)cc2)nc2ccc(-c3ccccc3)cn12)N1CCOCC1: ++ (pIC50 5.00-5.99)
- CC(=O)N1CCN(Cc2c(-c3ccc(Cl)cc3Cl)nc3cnccn23)CC1: +− (pIC50 < 4.00)
- O=C1CN(Cc2c(-c3ccc(Cl)cc3)nc3ccc(-c4ncon4)cn23)CCN1: ++ (pIC50 5.00-5.99)
- CC(=O)N1CCN(Cc2c(-c3ccc(Cl)cc3)nc3ccc(N(C)S(=O)(=O)C(C)C)cn23)CC1: ++ (pIC50 5.00-5.99)
- COc1ccc(C(=O)N2CCN(Cc3c(-c4ccc(Cl)cc4)nc4ccc(-c5ccccc5)cn34)CC2)cc1: +++ (pIC50 ≧ 6.00)
- CS(=O)(=O)Nc1ccc2nc(-c3ccc(Cl)cc3Cl)c(CN3CCN(C(=O)c4ccnnc4)CC3)n2c1: +++ (pIC50 ≧ 6.00)
- CC(=O)N1CCN(Cc2c(-c3ccc(Cl)cc3)nc3ccc(S(=O)(=O)C(C)C)cn23)CC1: ++ (pIC50 5.00-5.99)
- c1ccc(-c2ccc3nc(C4CCOCC4)c(CN4CCOCC4)n3c2)cc1: +− (pIC50 < 4.00)
- O=C(c1cccc(F)c1)N1CCN(Cc2c(-c3ccc(Cl)cc3)nc3ccc(-c4ccccc4)cn23)CC1: +++ (pIC50 ≧ 6.00)
- O=C(c1cscn1)N1CCN(Cc2c(-c3ccc(Cl)cc3Cl)nc3cnc(C4CC4)cn23)CC1: +++ (pIC50 ≧ 6.00)
- CN(c1ccc2nc(-c3ccc(Cl)cc3)c(CN3CCN(C(=O)C4COC4)CC3)n2c1)S(C)(=O)=O: ++ (pIC50 5.00-5.99)
- N#Cc1cccc(F)c1-c1ccc2nc(-c3ccc(Cl)cc3)c(CN3CCOCC3)n2c1: +++ (pIC50 ≧ 6.00)
- CC(C)(O)C(=O)N1CCN(Cc2c(-c3ccc(Cl)cc3Cl)nc3ccc(NS(C)(=O)=O)cn23)CC1: ++ (pIC50 5.00-5.99)
- CC(=O)N1CCN(Cc2c(-c3ccc(Cl)cc3Cl)nc3cnc(N(C)S(C)(=O)=O)cn23)CC1: ++ (pIC50 5.00-5.99)
- CC(C)(O)C(=O)N1CCN(Cc2c(-c3ccc(Cl)cc3)nc3ccc(-c4ccccc4)cn23)CC1: +++ (pIC50 ≧ 6.00)
- CN1CCN(Cc2c(-c3ccc(Cl)cc3)nc3ccc(-c4ccccc4C#N)cn23)CC1=O: +++ (pIC50 ≧ 6.00)
- CC(=O)N1CCN(Cc2c(-c3ccc(Cl)cc3)nc3ccc(N4CCCCS4(=O)=O)cn23)CC1: +++ (pIC50 ≧ 6.00)
- CC(=O)N1CCN(Cc2c(-c3ccc(Cl)cc3)nc3ccc(-c4ccccn4)cn23)CC1: +++ (pIC50 ≧ 6.00)
- O=C(Nc1cccc(F)c1)N1CCN(Cc2c(-c3ccc(Cl)cc3)nc3ccc(-c4ccccc4)cn23)CC1: +− (pIC50 < 4.00)
- COCCS(=O)(=O)Nc1ccc2nc(-c3ccc(Cl)cc3)c(CN3CCN(C(C)=O)CC3)n2c1: +− (pIC50 < 4.00)
- CC(=O)N1CCN(Cc2c(-c3ccc(Cl)cc3)nc3ccc(S(=O)(=O)N4CCCC4)cn23)CC1: ++ (pIC50 5.00-5.99)
- CC(=O)N1CCN(Cc2c(-c3ccc(Cl)cc3)nc3ccc(-c4ccccc4C#N)cn23)CC1: +++ (pIC50 ≧ 6.00)
- CC(=O)N1CCN(Cc2c(-c3ccc(Cl)cc3)nc3ccc(N4CCCS4(=O)=O)cn23)CC1: +++ (pIC50 ≧ 6.00)
